All values here come from patent US12077503B2.

Field: pest or weed control at 125 g/ha. Provide a value for each of the compounds that follow.
Tested on: Galium (catchweed bedstraw, Galium aparine)
Assay: Test A postemergence
Type: in vivo
Settings: Galium, post-emergence, 240 h, 125 g ai/ha, postemergence, visual injury rating after approximately 10 d; read-out: Galium plant response rating (0 to 100 scale, 0 no effect, 100 complete control)
Note: a bare number is incomplete; add the unit.

Return reported pest or weed control at 125 g/ha. Input compound: CCOc1ccc([C@H]2CN(C)C(=O)[C@@H]2C(=O)Nc2ccc(F)cc2F)cc1
0%

Return reported pest or weed control at 125 g/ha. Input compound: CN1C[C@H](c2cc(F)c(C(F)(F)F)c(F)c2)[C@@H](C(=O)Nc2ccccc2S(C)(=O)=O)C1=O
20%

Return reported pest or weed control at 125 g/ha. Input compound: CS(=O)(=O)c1ccccc1NC(=O)[C@H]1C(=O)NC[C@@H]1c1cc(F)c(C(F)(F)F)c(F)c1
80%

Return reported pest or weed control at 125 g/ha. Input compound: CN1CC[C@H](c2cccc(OC(F)(F)F)c2)[C@@H](C(=O)Nc2cccc(Cl)c2F)C1=O
0%

Return reported pest or weed control at 125 g/ha. Input compound: COc1c(F)ccc([C@H]2CNC(=O)[C@@H]2C(=O)Nc2ccccc2C(F)(F)F)c1Cl
30%

Return reported pest or weed control at 125 g/ha. Input compound: CSc1ccccc1NC(=O)[C@H]1C(=O)N(C)C[C@@H]1c1cccc(COC(F)F)c1
0%

Return reported pest or weed control at 125 g/ha. Input compound: Cc1c(F)cccc1NC(=O)[C@H]1C(=O)N(C)C[C@@H]1c1cccc(COC(F)F)c1
20%

###

Field: Plant response rating (scale of 0 to 100), Blackgrass. Provide a value for each of the compounds that follow.
Test system: blackgrass (Alopecurus myosuroides)
Test: Test C preemergence
Assay type: in vivo
Conditions: 31 g ai/ha, 0 is no effect, 100 is complete control
// keep it numeric: no unit symbol after the value

Provide Plant response rating (scale of 0 to 100), Blackgrass, tested on blackgrass (Alopecurus myosuroides), for CN1CC(c2ccc(C(F)(F)F)cc2)C(C(=O)Nc2ccccc2S(C)(=O)=O)C1=O (centres unmarked) [Compound 624] .
50

Provide Plant response rating (scale of 0 to 100), Blackgrass, tested on blackgrass (Alopecurus myosuroides), for CN1CC(c2ccc(F)c(C(F)(F)F)c2)C(C(=O)Nc2cccc(F)c2F)C1=O (centres unmarked) [Compound 613] .
85

Provide Plant response rating (scale of 0 to 100), Blackgrass, tested on blackgrass (Alopecurus myosuroides), for CN1CC(c2ccc(C(C)(F)F)cc2)C(C(=O)Nc2ccccc2F)C1=O (centres unmarked) [Compound 691] .
0

Provide Plant response rating (scale of 0 to 100), Blackgrass, tested on blackgrass (Alopecurus myosuroides), for CN1C[C@H](c2ccc(C(F)(F)F)cc2)[C@@H](C(=O)Nc2ccccc2F)C1=O [Compound 622] .
0

Provide Plant response rating (scale of 0 to 100), Blackgrass, tested on blackgrass (Alopecurus myosuroides), for CN1CC(c2cccc(OC(F)F)c2)C(C(=O)Nc2ccccc2F)C1=O (centres unmarked) [Compound 618] .
0

###

System: blackgrass (Alopecurus myosuroides)
Test: Test A postemergence
Type: in vivo
Conditions: 125 g ai/ha, postemergence; visual injury rating on 0 to 100 scale (0 no effect, 100 complete control), approx. 10 d
assay readout: Blackgrass plant response rating
// keep it numeric: no unit symbol after the value

Return reported Blackgrass plant response rating. Input molecule: CN1CC(c2ccc(Cl)cc2)C(C(=O)Nc2ccccc2F)C1=O (stereo not shown)
30

Return reported Blackgrass plant response rating. Input molecule: O=C1NCC(c2ccc(C(F)(F)F)c(F)c2)C1C(=O)Nc1ccc(F)cc1F (racemic)
30

Return reported Blackgrass plant response rating. Input molecule: COCc1cccc(C2CNC(=O)C2C(=O)Nc2ccccc2Cl)c1 (stereo not shown)
0

Return reported Blackgrass plant response rating. Input molecule: O=C1NCC(c2ccc(Oc3ccccc3)cc2)C1C(=O)Nc1cccc(F)c1F (racemic)
0

Return reported Blackgrass plant response rating. Input molecule: Cc1c(F)ccc(NC(=O)C2C(=O)NCC2c2cccc(OC(F)(F)C(F)F)c2)c1F (stereo not shown)
20

Return reported Blackgrass plant response rating. Input molecule: Cc1cc(NC(=O)C2C(=O)NCC2c2cccc(OC(F)F)c2)ccc1F (stereo not shown)
0

Return reported Blackgrass plant response rating. Input molecule: O=C1NCC(c2ccnc(C(F)(F)F)c2)C1C(=O)Nc1cccc(F)c1F (racemic)
20

Return reported Blackgrass plant response rating. Input molecule: CN1CC(c2cccc(C(F)(F)F)c2)C(C)(C(=O)Nc2ccccc2F)C1=O (stereo not shown)
40

Return reported Blackgrass plant response rating. Input molecule: O=C(Nc1ccccc1F)C1C(=O)N(CC=CBr)CC1c1cccc(C(F)(F)F)c1 (stereo not shown)
0

Return reported Blackgrass plant response rating. Input molecule: O=C(Nc1ccccc1F)C1C(=O)N(C2C=CCCC2)CC1c1cccc(C(F)(F)F)c1 (stereo not shown)
0

Return reported Blackgrass plant response rating. Input molecule: Cc1ccc(F)c(NC(=O)C2C(=O)NCC2c2cccc(OC(F)F)c2)c1 (stereo not shown)
0

Return reported Blackgrass plant response rating. Input molecule: O=C(Nc1cccc(F)c1F)C1C(=O)N(c2ccccc2)CC1c1cccc(C(F)(F)F)c1 (stereo not shown)
0

Return reported Blackgrass plant response rating. Input molecule: O=C1NCC(c2ccc(Oc3ccccc3)cc2)C1C(=O)Nc1ccccc1Cl (racemic)
0
